Target: hCB1Rs (Homo sapiens, UniProt P21554)
Construct: host or cells: CHO-K1 (CHO-hCB1)
Sequence (P21554 whole entry): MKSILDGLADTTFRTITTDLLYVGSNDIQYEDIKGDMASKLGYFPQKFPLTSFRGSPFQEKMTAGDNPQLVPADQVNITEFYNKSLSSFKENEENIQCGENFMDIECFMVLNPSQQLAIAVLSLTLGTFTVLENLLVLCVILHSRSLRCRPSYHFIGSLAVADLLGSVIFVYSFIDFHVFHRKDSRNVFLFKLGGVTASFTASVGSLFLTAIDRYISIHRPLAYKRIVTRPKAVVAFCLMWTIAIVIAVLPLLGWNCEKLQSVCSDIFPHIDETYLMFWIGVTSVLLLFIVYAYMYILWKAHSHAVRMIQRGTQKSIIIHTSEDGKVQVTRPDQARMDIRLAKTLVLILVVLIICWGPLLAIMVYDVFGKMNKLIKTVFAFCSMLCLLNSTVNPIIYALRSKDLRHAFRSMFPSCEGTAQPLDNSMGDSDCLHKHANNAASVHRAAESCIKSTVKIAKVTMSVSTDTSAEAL
Experiment: cell-based
Assay type: cell-based
Conditions: intact CHO-hCB1 cells, 10 μM forskolin, 15 min; read-out: IC50, cAMP accumulation (adenylyl cyclase inhibition)
Please respond with reported IC50 for every item in the list.
One number for each entry, in nM.

CCCCCn1nc(C(=O)N[C@H](C(N)=O)C(C)C)c2ccccc21 [AB-PINACA]: 3.9

Attention now shifts to the item below.
## Input Quick check: IC50 of CC(O)CCCn1nc(C(=O)NC(C(N)=O)C(C)C)c2ccccc21 (centres unmarked) [4OH-AB-PINACA] ?
## Output 141

The origin of these recorded values is paper PMC6168621.
